pEC50 reference
# experimental-target: Kappa-type opioid receptor (Homo sapiens, UniProt P41145)
# method-notes: Antagonist activity at human kappa opioid receptor expressed in CHO cells by [35S]GTP-gamma-S binding assay
pEC50: −log10 of the molar value.

# smiles-repr, pEC50
data = [
    ("COC(=O)[C@@H]1C[C@H](OC(C)=O)C(=O)[C@H]2[C@@]1(C)CC[C@H]1C(=O)O[C@H]([C@@H]3CCOC3)C[C@]21C", 6.12),
    ("COC(=O)[C@@H]1C[C@H](OC(C)=O)C(=O)[C@H]2[C@@]1(C)CC[C@H]1C(=O)O[C@H]([C@@H]3C[C@@H](OC)O[C@@H]3OC)C[C@]21C", 5.63),
]

----------
# experimental-target: Opioid receptors; mu & kappa (Homo sapiens) (UniProt P41145+P35372)
# Sequence (P35372 whole entry, looked up): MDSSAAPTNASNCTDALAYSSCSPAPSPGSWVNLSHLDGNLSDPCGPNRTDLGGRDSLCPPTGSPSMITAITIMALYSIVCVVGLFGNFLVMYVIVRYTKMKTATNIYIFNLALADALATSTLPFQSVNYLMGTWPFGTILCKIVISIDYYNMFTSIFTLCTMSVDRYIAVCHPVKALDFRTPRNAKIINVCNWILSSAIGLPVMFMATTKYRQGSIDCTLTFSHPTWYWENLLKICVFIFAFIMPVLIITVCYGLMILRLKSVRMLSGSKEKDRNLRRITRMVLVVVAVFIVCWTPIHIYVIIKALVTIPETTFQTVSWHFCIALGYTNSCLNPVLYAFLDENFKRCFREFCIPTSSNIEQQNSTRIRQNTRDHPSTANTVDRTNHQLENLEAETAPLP
# Sequence (P41145 whole entry, looked up): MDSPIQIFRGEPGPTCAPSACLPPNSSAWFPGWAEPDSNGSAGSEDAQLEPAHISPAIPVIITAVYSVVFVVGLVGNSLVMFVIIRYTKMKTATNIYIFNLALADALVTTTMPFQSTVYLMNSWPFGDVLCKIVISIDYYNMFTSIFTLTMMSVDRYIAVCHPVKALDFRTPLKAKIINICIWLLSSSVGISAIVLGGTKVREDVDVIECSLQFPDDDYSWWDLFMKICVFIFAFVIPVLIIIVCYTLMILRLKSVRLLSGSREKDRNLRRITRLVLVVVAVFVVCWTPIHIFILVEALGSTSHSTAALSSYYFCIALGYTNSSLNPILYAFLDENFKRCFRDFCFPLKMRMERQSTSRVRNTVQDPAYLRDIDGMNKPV
# method-notes: Selectivity for kappa opioid receptor over mu opioid receptor
# Type: protein assay
Ratio Ki reference

# compound, Ratio Ki
records = [
    ("COC(=O)[C@@H]1C[C@H](OC(C)=O)C(=O)[C@H]2[C@@]1(C)CC[C@H]1C(=O)O[C@H]([C@@H]3C[C@@H](OC)O[C@@H]3OC)C[C@]21C", "> 400"),
    ("COC(=O)[C@@H]1C[C@H](OC(C)=O)C(=O)[C@@H]2[C@@](C)(CCC3CCOC3)[C@H](C(=O)O)CC[C@]21C (some centres undefined)", "> 10"),
    ("COC(=O)[C@@H]1C[C@H](OC(C)=O)C(=O)[C@H]2[C@@]1(C)CC[C@H]1C(=O)O[C@H](c3nc(C)no3)C[C@]21C", "> 170"),
    ("COC(=O)[C@@H]1C[C@H](OC(C)=O)C(=O)[C@H]2[C@@]1(C)CC[C@H]1C(=O)OCC[C@]21C", "> 3"),
]

----------
# experimental-target: UniProt:P35372
# method-notes: Displacement of [125I]IOXY from human mu opioid receptor expressed in CHO cells
# Format: cell-based
pKi: −log10 of the molar value.

# compound, pKi
measured = [
    ("COC(=O)[C@@H]1C[C@H](OC(C)=O)C(=O)[C@H]2[C@@]1(C)CC[C@H]1C(=O)O[C@H]([C@@H]3CCOC3)C[C@]21C", 5.01),
    ("COC(=O)[C@@H]1C[C@H](OC(C)=O)C(=O)[C@H]2[C@@]1(C)CC[C@H]1C(=O)OCC[C@]21C", "< 5.00"),
    ("COC(=O)[C@@H]1C[C@H](OC(C)=O)C(=O)[C@H]2[C@@]1(C)CC[C@H]1C(=O)O[C@H](C3CC(OC)OC3OC)C[C@]21C (stereo partly drawn)", 5.32),
    ("COC(=O)[C@@H]1C[C@H](OC(C)=O)C(=O)[C@H]2[C@@]1(C)CC[C@H]1C(=O)O[C@H](C3=C[C@@H](OC)O[C@H]3OC)C[C@]21C", 5.43),
    ("COC(=O)[C@@H]1C[C@H](OC(C)=O)C(=O)[C@H]2[C@@]1(C)CC[C@H]1C(=O)OC([C@]3(O)[C@H](OC)O[C@H](OC)[C@H]3OC(C)=O)C[C@]21C (stereo partly drawn)", "< 5.00"),
    ("COC(=O)[C@@H]1C[C@H](OC(C)=O)C(=O)[C@H]2[C@@]1(C)CC[C@H]1C(=O)O[C@H]([C@@H]3C[C@@H](OC)O[C@H]3OC)C[C@]21C", "< 5.00"),
    ("COC(=O)[C@@H]1C[C@H](OC(C)=O)C(=O)[C@H]2[C@@]1(C)CC[C@H]1C(=O)O[C@H]([C@@H]3C[C@@H](OC)O[C@@H]3OC)C[C@]21C", "< 5.00"),
    ("COC(=O)[C@@H]1C[C@H](OC(C)=O)C(=O)[C@H]2[C@@]1(C)CC[C@H]1C(=O)O[C@H](C3=C[C@@H](OC)O[C@@H]3OC)C[C@]21C", 5.50),
    ("COC(=O)[C@@H]1C[C@H](O)C(=O)[C@H]2[C@@]1(C)CC[C@H]1C(=O)O[C@H](c3ccoc3)C[C@]21C", "< 5.00"),
    ("COC(=O)[C@@H]1C[C@H](OC(C)=O)C(=O)[C@H]2[C@@]1(C)CC[C@H]1C(=O)O[C@H](C3=NCCO3)C[C@]21C", "< 5.00"),
    ("COC(=O)[C@@H]1C[C@H](OC(C)=O)C(=O)[C@@H]2[C@@]3(C)C[C@@H](c4nc(C)no4)OC(=O)[C@H]3CC[C@]21C", "< 5.00"),
    ("COC(=O)[C@@H]1C[C@H](OC(C)=O)C(=O)[C@H]2[C@@]1(C)CC[C@H]1C(=O)O[C@H](c3nc(C)no3)C[C@]21C", "< 5.00"),
    ("COC(=O)[C@@H]1C[C@H](OC(C)=O)C(=O)[C@@H]2[C@@](C)(CCC3CCOC3)[C@H](C(=O)O)CC[C@]21C (stereo partly drawn)", "< 5.00"),
]
